- measured on: T1, CD70 on cells (CHO-CD70, JVM-3, U266, Raji, THP-1, T cells) (human, UniProt P32970 1-193)
- T1 construct: whole, on cells; also called cell-surface CD70
- T1 sequence (looked up): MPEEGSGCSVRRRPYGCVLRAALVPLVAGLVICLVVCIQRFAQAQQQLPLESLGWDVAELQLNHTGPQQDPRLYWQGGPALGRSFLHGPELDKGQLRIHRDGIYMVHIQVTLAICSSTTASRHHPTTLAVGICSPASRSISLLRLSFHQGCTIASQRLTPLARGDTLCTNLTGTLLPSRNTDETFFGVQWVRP
- assay info: 1.25 µg/mL scFv on CHO-CD70 cells
measurement name: cell binding
Form rule: numeric answer, no unit written next to it.

49-TC4-XVI-F01 (scFv, His-tagged) scFv: QVQLVESGGGVVQPGRSLRLSCAASGFTFSSYAMHWVRQAPGKGLEWVAVISYDGSNKYYADSVKGRFTISRDNSKNTLYLQMNSLRAEDTAVYYCARDSTQDYGMDVWGQGTMVTVSSGGSGGSGGSGGSSSELTQDPAVSVALGQTVRITCQGDSLRNYYASWYQQKPGQAPVLVFYGKNNRPSGIPDRFSGSSSGNTASLTITGAQAEDEADYYCNSRDSSGNHLVVFGGGTKLTVL :: 134000
32-TC1.2-I-F07-6 (scFv, His-tagged) scFv: QVQLVQSGAEVKKPGESLKISCKGSGYSFTSYWIGWVRQMPGKGLEWMGIIYPGESDTRYSPSFQGQVTISADKSISTAYLQWSSLKASDTAMYYCARRNYYDRSGYVDAFDIWGQGTMVTVSSGGSGGSGGSGGSSSELTQDPAVSVALGQTVRITCQGDSLRRFYASWHQQKPGQAPIVVMYAENNRPSGIPDRFSGSSSGNTASLTITGAQAEDEATYYCNSRDSSGNRHVFGTGTKLTVL :: 553000
14-TC4-III-A04 (scFv, His-tagged) scFv: QVQLVQSGAEVKKPGASVKVSCKASGYTFTGYYMNWVRQAPGQGLEWMAWINPNTGDTNYAQKFQGRVTMTRDTSINTAYIELSRLTSDDTAVYYCARVGDYYDRSGYYRHDAFDIWGQGTMVTVSSGGSGGSGGSGGSSSELTQDPAVSVALGQTVRITCQGDSLRSYYASWYQQKPGQAPVLVIYGKNNRPSGIPDRFSGSSSGNTASLTITGAQAEDEADYYCQAWDSSTGVFGGGTKVTVL :: 610000
58-TC7-III-G11 (scFv, His-tagged) scFv: EVQLVQSGGGVVQPGRSLRLSCAASGFTFSSYAMHWVRQAPGKGLEWVAVISYDGSNKYYADSVKGRFTISRDNSKNTLYLQMNSLRAEDTAVYYCATNSGYDSDYYYGMDVWGQGTTVTVSSGGSGGSGGSGGSQSVLTQPPSMSGAPGQRVTISCTGSSSNIGAGYDVHWYQHLPGTGPKLLIHGNTNRPSGVPDRFSGSKSGTSASLAITGLQAEDEADYYCQSYDNSLGGYVVFGGGTKVTVL :: 277000
61-TC7-IV-H08 (scFv, His-tagged) scFv: QMQLVQSGGGLVQPGRSLRLSCAASGFTFDDYAMHWVRQAPGKGLEWVAVISYDGSNKYYADSVKGRFTISRDNSKNTLYLQMNSLRAEDTAVYYCARSSYDFWSGYPKDMDVWGKGTTVTVSSGGSGGSGGSGGSSSELTQDPAVSVALGQTVRITCQGDSLRSYYASWYQQKPGQAPVLVIYGKNNRPSGIPDRFSGSSSGNTASLTITGAQAEDEADYYCNSRDSSGNHLVVFGGGTKLTVL :: 64900

Now for a further binder.
Look up cell binding: 55-TC4-IX-G04 (scFv, His-tagged) scFv: QVQLLESGGGVVQPGRSLRLSCAASGFTFSSYAMHWVRQAPGKGLEWVAVISYDGSNKYYADSVKGRFTISRDNSKNTLYLQMNSLRAEDTAVYYCARGLGFGSGWYEYVDAFDIWGQGTMVTVSSGGSGGSGGSGGSQSVLTQPASVSGSPGQSITISCTGTSSDVGSYNLVSWYQQHPGKAPKLMIYEVSKRPSGVSNRFSGSKSGNTASLTISGLQAEDEADYYCSSYRSNNTPWVFGGGTKLTVL 87200
